So I've got a bunch of compounds here, and I need their tissue uptake at 48 h values.
Experiment: Biodistribution in Daudi xenograft bearing mice
Format: in vivo, mouse
Conditions: female, CB-17 SCID, mouse, stomach, iv, total radioactivity, 48h p.i., i.v.; means ± SD, n=4-5; read-out: Biodistribution stomach
Where a SMILES comes first, the peptide text is derived from it. Side-chain parts run from the residue outwards. [ ]: non-standard residue; d: D form. The star is where a group is joined. DOTA = O=C(O)CN1CCN(CC(=O)O)CCN(CC(=O)*)CCN(CC(=O)O)CC1; dTyr(3-I) = N[C@H](Cc1ccc(O)c(I)c1)C(=O)O; 2Nal = N[C@@H](Cc1ccc2ccccc2c1)C(=O)O; dNMeOrn = CN[C@H](CCCN)C(=O)O; 4Abz = Nc1ccc(C(=O)O)cc1
Numbers only, in %ID/g.

compound="C[C@@H](NC(=O)[C@@H](CCCNC(=N)N)NC(=O)CN1CCN(CC(=O)O)CCN(CC(=O)O)CCN(CC(=O)O)CC1)C(=O)Nc1ccc(C(=O)NCCC[C@@H]2C(=O)N[C@@H](CCCNC(=N)N)C(=O)N[C@@H](Cc3ccc4ccccc4c3)C(=O)NCC(=O)N[C@H](Cc3ccc(O)cc3)C(=O)N2C)cc1 [[^177Lu]DOTA-r-a-ABA-CPCR4, metal not drawn] (cyclo([2Nal]G[dY][dNMeOrn]([4Abz-dA-dR-DOTA])R))" reading=0.19

Next up:
Endpoint output: tissue uptake at 48 h of C[C@@H](NC(=O)[C@@H](CCCNC(=N)N)NC(=O)CN1CCN(CC(=O)O)CCN(CC(=O)O)CCN(CC(=O)O)CC1)C(=O)Nc1ccc(C(=O)NCCC[C@@H]2C(=O)N[C@@H](CCCNC(=N)N)C(=O)N[C@@H](Cc3ccc4ccccc4c3)C(=O)NCC(=O)N[C@H](Cc3ccc(O)c(I)c3)C(=O)N2C)cc1 [[^177Lu]DOTA-r-a-ABA-iodoCPCR4, metal not drawn] (cyclo([2Nal]G[dTyr(3-I)][dNMeOrn]([4Abz-dA-dR-DOTA])R)) . Value?
0.14

###

Test: Biodistribution in Daudi xenograft bearing mice
Type: in vivo, mouse
Conditions: female, CB-17 SCID, mouse, small intestine, iv, total radioactivity, 6h p.i., i.v.; means ± SD, n=4-5; read-out: Biodistribution small intestine
Where a SMILES comes first, the peptide text is derived from it. Side-chain parts run from the residue outwards. [ ]: non-standard residue; d: D form. The star is where a group is joined. DOTA = O=C(O)CN1CCN(CC(=O)O)CCN(CC(=O)*)CCN(CC(=O)O)CC1; dTyr(3-I) = N[C@H](Cc1ccc(O)c(I)c1)C(=O)O; 2Nal = N[C@@H](Cc1ccc2ccccc2c1)C(=O)O; dNMeOrn = CN[C@H](CCCN)C(=O)O; 4Abz = Nc1ccc(C(=O)O)cc1
assayMetric: tissue uptake at 6 h (%ID/g)
Numbers only, in %ID/g.

compound="C[C@@H](NC(=O)[C@@H](CCCNC(=N)N)NC(=O)CN1CCN(CC(=O)O)CCN(CC(=O)O)CCN(CC(=O)O)CC1)C(=O)Nc1ccc(C(=O)NCCC[C@@H]2C(=O)N[C@@H](CCCNC(=N)N)C(=O)N[C@@H](Cc3ccc4ccccc4c3)C(=O)NCC(=O)N[C@H](Cc3ccc(O)c(I)c3)C(=O)N2C)cc1 [[^177Lu]DOTA-r-a-ABA-iodoCPCR4, metal not drawn] (cyclo([2Nal]G[dTyr(3-I)][dNMeOrn]([4Abz-dA-dR-DOTA])R))" assaymetric="tissue uptake at 6 h" reading=0.24

Next up:
Endpoint output: tissue uptake at 6 h of C[C@@H](NC(=O)[C@@H](CCCNC(=N)N)NC(=O)CN1CCN(CC(=O)O)CCN(CC(=O)O)CCN(CC(=O)O)CC1)C(=O)Nc1ccc(C(=O)NCCC[C@@H]2C(=O)N[C@@H](CCCNC(=N)N)C(=O)N[C@@H](Cc3ccc4ccccc4c3)C(=O)NCC(=O)N[C@H](Cc3ccc(O)cc3)C(=O)N2C)cc1 [[^177Lu]DOTA-r-a-ABA-CPCR4, metal not drawn] (cyclo([2Nal]G[dY][dNMeOrn]([4Abz-dA-dR-DOTA])R)) . Value?
0.3

###

So I've got a bunch of molecules here, and I need their log PO/PBS values.
Assay: Lipophilicity, modified shake-flask method
Format: physicochemical
Settings: O/PBS, radiolabeled compound, means ± SD (n=6)
Where a SMILES comes first, the peptide text is derived from it. Side-chain parts run from the residue outwards. [ ]: non-standard residue; d: D form. The star is where a group is joined. DOTA = O=C(O)CN1CCN(CC(=O)O)CCN(CC(=O)*)CCN(CC(=O)O)CC1; dTyr(3-I) = N[C@H](Cc1ccc(O)c(I)c1)C(=O)O; 2Nal = N[C@@H](Cc1ccc2ccccc2c1)C(=O)O; dNMeOrn = CN[C@H](CCCN)C(=O)O; 4Abz = Nc1ccc(C(=O)O)cc1
Numbers only.

Here are 2 molecules. What values of log PO/PBS were reported for them?
1. C[C@@H](NC(=O)[C@@H](CCCNC(=N)N)NC(=O)CN1CCN(CC(=O)O)CCN(CC(=O)O)CCN(CC(=O)O)CC1)C(=O)Nc1ccc(C(=O)NCCC[C@@H]2C(=O)N[C@@H](CCCNC(=N)N)C(=O)N[C@@H](Cc3ccc4ccccc4c3)C(=O)NCC(=O)N[C@H](Cc3ccc(O)c(I)c3)C(=O)N2C)cc1 [[^68Ga]DOTA-r-a-ABA-iodoCPCR4] [metal not drawn] (cyclo([2Nal]G[dTyr(3-I)][dNMeOrn]([4Abz-dA-dR-DOTA])R))
2. CN1C(=O)[C@@H](Cc2ccc(O)c(I)c2)NC(=O)CNC(=O)[C@H](Cc2ccc3ccccc3c2)NC(=O)[C@H](CCCNC(=N)N)NC(=O)[C@H]1CCCNC(=O)c1ccc(NC(=O)CNC(=O)[C@@H](CCCNC(=N)N)NC(=O)CN2CCN(CC(=O)O)CCN(CC(=O)O)CCN(CC(=O)O)CC2)cc1 [[^177Lu]DOTA-r-G-ABA-iodoCPCR4] [metal not drawn] (cyclo([2Nal]G[dTyr(3-I)][dNMeOrn]([4Abz-Gly-dR-DOTA])R))

1. -3.3
2. -2.7

Endpoint output: log PO/PBS of C[C@@H](NC(=O)[C@@H](CCCNC(=N)N)NC(=O)CN1CCN(CC(=O)O)CCN(CC(=O)O)CCN(CC(=O)O)CC1)C(=O)Nc1ccc(C(=O)NCCC[C@@H]2C(=O)N[C@@H](CCCNC(=N)N)C(=O)N[C@@H](Cc3ccc4ccccc4c3)C(=O)NCC(=O)N[C@H](Cc3ccc(O)c(I)c3)C(=O)N2C)cc1 [[^177Lu]DOTA-r-a-ABA-iodoCPCR4] [metal not drawn] (cyclo([2Nal]G[dTyr(3-I)][dNMeOrn]([4Abz-dA-dR-DOTA])R)) . Value?
-2.8

###

Assay: Biodistribution in Daudi xenograft bearing mice
Format: in vivo, mouse
Settings: female, CB-17 SCID, mouse, small intestine, iv, total radioactivity, 48h p.i., i.v.; means ± SD, n=4-5; read-out: Biodistribution small intestine
Where a SMILES comes first, the peptide text is derived from it. Side-chain parts run from the residue outwards. [ ]: non-standard residue; d: D form. The star is where a group is joined. DOTA = O=C(O)CN1CCN(CC(=O)O)CCN(CC(=O)*)CCN(CC(=O)O)CC1; dTyr(3-I) = N[C@H](Cc1ccc(O)c(I)c1)C(=O)O; 2Nal = N[C@@H](Cc1ccc2ccccc2c1)C(=O)O; dNMeOrn = CN[C@H](CCCN)C(=O)O; 4Abz = Nc1ccc(C(=O)O)cc1
assayMetric: tissue uptake at 48 h (%ID/g)
Answers are plain numbers, in %ID/g.

compound="C[C@@H](NC(=O)[C@@H](CCCNC(=N)N)NC(=O)CN1CCN(CC(=O)O)CCN(CC(=O)O)CCN(CC(=O)O)CC1)C(=O)Nc1ccc(C(=O)NCCC[C@@H]2C(=O)N[C@@H](CCCNC(=N)N)C(=O)N[C@@H](Cc3ccc4ccccc4c3)C(=O)NCC(=O)N[C@H](Cc3ccc(O)c(I)c3)C(=O)N2C)cc1 [[^177Lu]DOTA-r-a-ABA-iodoCPCR4, metal not drawn] (cyclo([2Nal]G[dTyr(3-I)][dNMeOrn]([4Abz-dA-dR-DOTA])R))" reading=0.16

Next up:
Endpoint output: tissue uptake at 48 h of C[C@@H](NC(=O)[C@@H](CCCNC(=N)N)NC(=O)CN1CCN(CC(=O)O)CCN(CC(=O)O)CCN(CC(=O)O)CC1)C(=O)Nc1ccc(C(=O)NCCC[C@@H]2C(=O)N[C@@H](CCCNC(=N)N)C(=O)N[C@@H](Cc3ccc4ccccc4c3)C(=O)NCC(=O)N[C@H](Cc3ccc(O)cc3)C(=O)N2C)cc1 [[^177Lu]DOTA-r-a-ABA-CPCR4, metal not drawn] (cyclo([2Nal]G[dY][dNMeOrn]([4Abz-dA-dR-DOTA])R)) . Value?
0.16
